- SYSTEM: T1, GFP-9S library array, motif 4 ND N98R;D124A (synthetic construct, N98R;D124A)
- T1 chain: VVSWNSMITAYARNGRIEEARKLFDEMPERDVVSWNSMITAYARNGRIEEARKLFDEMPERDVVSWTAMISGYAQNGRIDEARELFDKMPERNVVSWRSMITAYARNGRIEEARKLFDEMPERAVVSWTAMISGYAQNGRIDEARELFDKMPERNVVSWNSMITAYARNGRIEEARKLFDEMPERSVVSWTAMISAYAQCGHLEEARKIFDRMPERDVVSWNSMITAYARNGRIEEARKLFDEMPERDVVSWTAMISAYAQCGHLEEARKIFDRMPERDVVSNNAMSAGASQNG
- ASSAY_NAME: high-throughput RNA pulldown from lysate on Ni-NTA beads; HRP: 50 mM Tris pH 8, 150 mM NaCl, 1 mM beta-mercaptoethanol, 50 ug/ml BSA, 3 ug/ml yeast RNA, 0.5% heparin; ITC and FP: Tris pH 8, 200 mM KCl, 5% glycerol; MST: 50 mM Tris pH 8, 200 mM NaCl, 1 mM DTT, BSA, heparin, 0.05% Tween 20
- RECORDED_CONDITIONS: tags: N-terminal His-eGFP; label: 5' IRDye 800CW
pKd: −log10 of the molar value.
READOUT_LABEL: pKd

1) AUUAUACGUGA (ssRNA) [IR-rpoA-U]: 6.94
2) AUUAAACGUGA (ssRNA) [IR-rpoA-A]: 6.84
